Please provide measured koff for the entries that follow.
Target: T1, hu-CD74 antigen (R&D SYSTEMS catalog #3590-CD-050) (human, UniProt P04233-2 73-232, limits assumed)
T1 construct: Bought antigen; also called rhCD74; human CD74
T1 sequence (looked up): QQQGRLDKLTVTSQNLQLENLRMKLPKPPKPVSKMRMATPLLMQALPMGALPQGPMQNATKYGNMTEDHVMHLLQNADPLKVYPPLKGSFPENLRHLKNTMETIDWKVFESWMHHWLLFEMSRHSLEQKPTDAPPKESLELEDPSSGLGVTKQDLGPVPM
Test: SPR (Biacore T200), IgG captured on anti-human Fc, rhCD74 analyte

stdin: Entry HC 1251_A06 (g)/LC 1337_A09 (wt) (antibody, human IgG1, kappa, V domains shown, IgG format) VH: QVQLVESGGGVVQPGRSLRLSCAASGFDFSSYGMHWVRQAPGKGLEWVAVIWDDGSDRYYADSVKGRFTISRDNSKNTLYLQMNSLRAEDTAVYYCARGGTRVLGAIHGTDVWGQGTTVTVSS VL: DIQMTQSPSSLSASVGDRVTITCRASQGIGSWLAWYQQKPEKAPKSLIYAADRLQSGVPSRFSGSGSGTDFTLTISSLQPEDFATYYCQQYHTYPLTFGGGTKVEIKR has what koff?
stdout: 8.63e-05 s⁻¹

stdin: Next entry: HC 1251_B08 (wt)/LC 1337_A10 (wt) (antibody, human IgG1, kappa, V domains shown, IgG format) VH: QVQLVESGGGVVQPGRSLRLSCAASGFNFSDYGMHWVRQAPDKGLEWVAVIWYDGSISYYADSVKGRFTISRDNSKNTLYLQMNSLRAEDTAVYYCARGGTVEHGAVYGTDVWGQGATVTVSS VL: DIQMTQSPSSLSASVGDRVTITCRASQGISSWVAWYQQKPEKAPKSLIYGSSRLQSGVPSRFSGSGSGTDFTLTISSLQPEDFATYYCQQYNTYPLTFGGGTKVEIKR
stdout: 0.000115 s⁻¹

stdin: Next entry: HC 1251_A06 (wt)/LC 1337_A07 (g) (antibody, human IgG1, kappa, V domains shown, IgG format) VH: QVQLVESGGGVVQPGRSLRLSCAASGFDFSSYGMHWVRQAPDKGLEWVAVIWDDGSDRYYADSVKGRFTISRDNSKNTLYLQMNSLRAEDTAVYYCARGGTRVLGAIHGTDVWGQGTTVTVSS VL: DIQMTQSPSSVSASVGDRVTITCRASQGISSWVAWYQQKPGKAPKLLIYGASRLQSGVPSRFSGSGSGTDFTLTISSLQPEDFATYYCQQYHTYPLTFGGGTKVEIKR
stdout: 0.000136 s⁻¹

stdin: Next entry: HC 1251_B08 (wt)/LC 1275_C10 (wt) (antibody, human IgG1, kappa, V domains shown, IgG format) VH: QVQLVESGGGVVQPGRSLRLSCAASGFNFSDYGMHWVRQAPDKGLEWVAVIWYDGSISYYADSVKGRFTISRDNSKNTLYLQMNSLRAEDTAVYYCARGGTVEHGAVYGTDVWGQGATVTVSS VL: DIQMTQSPSSLSASVGDRVTITCRASQGVSSWLAWYQQKPEKAPKSLIYSARYLQSGVPSRFSGSGSGTDFTLTISSLQPEDFATYYCQQYNLYPLTFGGGTKVEIKR
stdout: 0.000119 s⁻¹

stdin: Next entry: HC 1251_B08 (g)/LC 1337_A09 (wt) (antibody, human IgG1, kappa, V domains shown, IgG format) VH: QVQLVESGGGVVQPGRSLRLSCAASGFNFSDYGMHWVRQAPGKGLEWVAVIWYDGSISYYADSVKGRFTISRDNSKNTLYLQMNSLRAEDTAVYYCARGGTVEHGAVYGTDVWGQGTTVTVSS VL: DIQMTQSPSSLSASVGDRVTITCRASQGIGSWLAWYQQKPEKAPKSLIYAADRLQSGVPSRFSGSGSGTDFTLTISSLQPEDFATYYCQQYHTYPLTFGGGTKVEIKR
stdout: 0.000106 s⁻¹
